System: goosegrass (Eleusine indica)
Experiment: Test B pre-/postemergence plant response
Type: in vivo
Conditions: Preemergence, 62 g ai/ha; scale 0 to 100
observation-type: Plant response rating, Goosegrass
// no unit string in output, number only

Some solved entries appear below for comparison.
compound	Plant response rating, Goosegrass
CCc1cc(-c2ccc(Cl)c(Cl)c2)nn1-c1c(O)cnn(C)c1=O [Compound 20]	70
CCc1cc(-c2ccc(Cl)cc2)nn1-c1c(OC(=O)OC(C)C)cnn(C)c1=O [Compound 41]	0
Cc1cc(-c2ccc(Cl)cc2)nn1-c1c(OS(=O)(=O)c2ccccc2[N+](=O)[O-])cnn(C)c1=O [Compound 51]	90
CCc1cc(-c2ccc(C(F)(F)F)cc2)nn1-c1c(OS(C)(=O)=O)cnn(C)c1=O [Compound 19]	100

Please find the next compound below.
Prompt: # return recorded Plant response rating, Goosegrass for input COC(=O)Oc1cnn(C)c(=O)c1-n1nc(-c2ccc(Cl)cc2)cc1C [Compound 33]
Completion: 98

###

Below, each of the compounds is paired with its reported Plant response rating, Wheat, Winter value.
System: winter wheat (Triticum aestivum)
Experiment: Test C pre-/postemergence plant response
Type: in vivo
Conditions: Preemergence, 16 g ai/ha; scale 0 to 100 (0 no effect, 100 complete control)
// no unit string in output, number only

Some solved entries appear below for comparison.
compound-string	Plant response rating, Wheat, Winter
COC(=O)Oc1cnn(C)c(=O)c1-n1nc(-c2ccc(Cl)cc2)cc1C	0
CCc1cc(-c2ccc(Cl)cc2)nn1-c1c(OC(=O)OC(C)C)cnn(C)c1=O	40
CCc1cc(-c2ccc(C(F)(F)F)cc2)nn1-c1c(OS(C)(=O)=O)cnn(C)c1=O	50
Cc1cc(-c2ccc(Cl)cc2)nn1-c1c(OC(=O)C(C)C)cnn(C)c1=O	10
C#CCOC(=O)Oc1cnn(C)c(=O)c1-n1nc(-c2ccc(Cl)cc2)cc1C	0

Prompt: # return recorded Plant response rating, Wheat, Winter for input CCc1cc(-c2ccc(F)cc2)nn1-c1c(O)cnn(C)c1=O
Completion: 0

###

Tested on: velvetleaf (Abutilon theophrasti)
Assay: Test A pre-/postemergence plant response
Type: in vivo
Details: Preemergence, 125 g ai/ha; 0 to 100 scale (0 no effect, 100 complete control)
observation-type: Plant response rating, Velvetleaf
// no unit string in output, number only

compound-string	study-target	Plant response rating, Velvetleaf
CCc1c(C)c(-c2ccc(Cl)cc2)nn1-c1c(O)cnn(C)c1=O	velvetleaf (Abutilon theophrasti)	0
CCc1cc(-c2ccc(Cl)cc2)nn1-c1c(OC(=O)OC(C)C)cnn(C)c1=O	velvetleaf (Abutilon theophrasti)	0

Prompt: # return recorded Plant response rating, Velvetleaf for input Cc1cc(-c2ccc(Cl)cc2)nn1-c1c(OC(=O)OCC(C)C)cnn(C)c1=O
Completion: 0

Prompt: # return recorded Plant response rating, Velvetleaf for input Cc1nn(-c2ccc(Cl)cc2)cc1-c1c(O)cnn(C)c1=O
Completion: 0

Prompt: # return recorded Plant response rating, Velvetleaf for input Cn1ncc(O)c(-c2nn(-c3ccc(Cl)cc3)cc2Br)c1=O
Completion: 0

###

Test system: common ragweed (Ambrosia elation)
Assay: Test B pre-/postemergence plant response
Type: in vivo
Conditions: Preemergence, 62 g ai/ha; scale 0 to 100
observation-type: Plant response rating, Ragweed

Some solved entries appear below for comparison.
compound-string	observation-type	observed-measurement
Cc1cc(-c2ccc(Cl)cc2)nn1-c1c(OS(C)(=O)=O)cnn(C)c1=O	Plant response rating, Ragweed	0
CCc1cc(-c2ccc(Cl)cc2)nn1-c1c(OC(=O)C(C)(C)C)cnn(C)c1=O	Plant response rating, Ragweed	0

Prompt: # return recorded Plant response rating, Ragweed for input CCc1cc(-c2ccc(Cl)c(Cl)c2)nn1-c1c(O)cnn(C)c1=O
Completion: 0

meta.source: patent US20100267561A1
